Where do these numbers come from? They come from patent US20020034421A1.

Assay: Fenton reaction degradation of PAHs in Quakertown silt loam
Details: ratio head 1.1; [H2O2:FeSO4] = [0.2 g:0.2 g]; 24 h; Quakertown silt loam
ASSAY READOUT: % remaining in soil (a %)
Dear colleague, please return just the value in a %, with no unit written.

Ask: Return % remaining in soil (reported value) for this compound: `c1cc2ccc3cccc4ccc(c1)c2c34`
Reply: 95.4

Ask: Please give measured % remaining in soil of the following entry: `c1ccc2c(c1)ccc1c3ccccc3ccc21`
Reply: 100

Ask: Look up and state reported % remaining in soil for `c1ccc2cc3ccccc3cc2c1`
Reply: 100

Ask: Return reported % remaining in soil. Input compound: `c1ccc2c(c1)cc1ccc3cccc4ccc2c1c34`
Reply: 84.8

* * *

Test: Fenton reaction degradation of PAHs in Quakertown silt loam
Conditions: Hydrogen Peroxide (2g), 100 mg Ferrous Sulfate; Quakertown silt loam
ASSAY READOUT: % remaining in soil (b %)
Field: numeric (b %). Do not append units.

Ask: # return recorded % remaining in soil for input c1cc2ccc3cccc4ccc(c1)c2c34 [Pyrene, pyrene]
Reply: 16.3

Ask: Specify % remaining in soil for c1ccc2c(c1)cc1ccc3cccc4ccc2c1c34 [Benzo(a)pyrene, benzo(a)pyrene] and stop.
Reply: 10.5

Ask: Look up and state reported % remaining in soil for c1ccc2cc3ccccc3cc2c1 [Anthracene, anthracene]
Reply: 76.3

* * *

What % remaining in soil was measured for each of the following?
Assay: Fenton reaction degradation of PAHs in MGP soil
Details: FR: Fenton's reagent treatment for 24 hours

Ask: Supply measured % remaining in soil of `c1ccc2c(c1)Cc1ccccc1-2` in your reply.
Reply: 10.3a %

Ask: Dear colleague, please send me the reported % remaining in soil for `c1ccc2c(c1)ccc1ccccc12` when you can.
Reply: 16.8a %

Ask: Determine from records and report % remaining in soil for `c1cc2ccc3cccc4ccc(c1)c2c34`
Reply: 53.4a %

Ask: Kindly indicate its recorded % remaining in soil. Item: `c1ccc2c(c1)ccc1c3ccccc3ccc21`
Reply: 50.8b %

* * *

For each record, write down the corresponding % remaining in soil.
Assay: Hydrogen peroxide oxidation of PAHs at near neutral pH (modified Fenton's reagent) in Quakertown silt loam
Details: FR + CaCO3, pH ca. 6.0-6.5
// units = a %; emit number, no label

Ask: Recall and state the measured % remaining in soil for c1ccc2c(c1)ccc1c3ccccc3ccc21 [Chrysene, chrysene] .
Reply: 100

Ask: Identify measured % remaining in soil corresponding to c1ccc2c(c1)cc1ccc3cccc4ccc2c1c34 [Benzo(a)pyrene, benzo(a)pyrene]
Reply: 73.1

Ask: Using known records, supply % remaining in soil for c1ccc2cc3ccccc3cc2c1 [Anthracene, anthracene]
Reply: 78.1

Ask: Give the reported value of % remaining in soil for this record: c1cc2ccc3cccc4ccc(c1)c2c34 [Pyrene, pyrene]
Reply: 77.1

* * *

Experiment: Fenton reaction degradation of PAHs in Quakertown silt loam
Conditions: ratio 5:1; [H2O2:FeSO4] = [1.0 g:0.2 g]; 24 h; Quakertown silt loam
ASSAY READOUT: % remaining in soil (b %)
Give your result in b % as a bare value.

Ask: Using the record for `c1ccc2c(c1)ccc1c3ccccc3ccc21` , state its measured % remaining in soil.
Reply: 87.0

Ask: Kindly indicate its recorded % remaining in soil. Item: `c1ccc2c(c1)cc1ccc3cccc4ccc2c1c34`
Reply: 35.3

Ask: Tell me measured % remaining in soil for `c1ccc2cc3ccccc3cc2c1` please.
Reply: 75.9

Ask: Specify % remaining in soil for `c1cc2ccc3cccc4ccc(c1)c2c34` and stop.
Reply: 51.0
